Each entry below carries its recorded pIC50.
Target: ALK (Homo sapiens)
Construct: host or cells: baculovirus expression system
Sequence (Q9UM73 19-1620): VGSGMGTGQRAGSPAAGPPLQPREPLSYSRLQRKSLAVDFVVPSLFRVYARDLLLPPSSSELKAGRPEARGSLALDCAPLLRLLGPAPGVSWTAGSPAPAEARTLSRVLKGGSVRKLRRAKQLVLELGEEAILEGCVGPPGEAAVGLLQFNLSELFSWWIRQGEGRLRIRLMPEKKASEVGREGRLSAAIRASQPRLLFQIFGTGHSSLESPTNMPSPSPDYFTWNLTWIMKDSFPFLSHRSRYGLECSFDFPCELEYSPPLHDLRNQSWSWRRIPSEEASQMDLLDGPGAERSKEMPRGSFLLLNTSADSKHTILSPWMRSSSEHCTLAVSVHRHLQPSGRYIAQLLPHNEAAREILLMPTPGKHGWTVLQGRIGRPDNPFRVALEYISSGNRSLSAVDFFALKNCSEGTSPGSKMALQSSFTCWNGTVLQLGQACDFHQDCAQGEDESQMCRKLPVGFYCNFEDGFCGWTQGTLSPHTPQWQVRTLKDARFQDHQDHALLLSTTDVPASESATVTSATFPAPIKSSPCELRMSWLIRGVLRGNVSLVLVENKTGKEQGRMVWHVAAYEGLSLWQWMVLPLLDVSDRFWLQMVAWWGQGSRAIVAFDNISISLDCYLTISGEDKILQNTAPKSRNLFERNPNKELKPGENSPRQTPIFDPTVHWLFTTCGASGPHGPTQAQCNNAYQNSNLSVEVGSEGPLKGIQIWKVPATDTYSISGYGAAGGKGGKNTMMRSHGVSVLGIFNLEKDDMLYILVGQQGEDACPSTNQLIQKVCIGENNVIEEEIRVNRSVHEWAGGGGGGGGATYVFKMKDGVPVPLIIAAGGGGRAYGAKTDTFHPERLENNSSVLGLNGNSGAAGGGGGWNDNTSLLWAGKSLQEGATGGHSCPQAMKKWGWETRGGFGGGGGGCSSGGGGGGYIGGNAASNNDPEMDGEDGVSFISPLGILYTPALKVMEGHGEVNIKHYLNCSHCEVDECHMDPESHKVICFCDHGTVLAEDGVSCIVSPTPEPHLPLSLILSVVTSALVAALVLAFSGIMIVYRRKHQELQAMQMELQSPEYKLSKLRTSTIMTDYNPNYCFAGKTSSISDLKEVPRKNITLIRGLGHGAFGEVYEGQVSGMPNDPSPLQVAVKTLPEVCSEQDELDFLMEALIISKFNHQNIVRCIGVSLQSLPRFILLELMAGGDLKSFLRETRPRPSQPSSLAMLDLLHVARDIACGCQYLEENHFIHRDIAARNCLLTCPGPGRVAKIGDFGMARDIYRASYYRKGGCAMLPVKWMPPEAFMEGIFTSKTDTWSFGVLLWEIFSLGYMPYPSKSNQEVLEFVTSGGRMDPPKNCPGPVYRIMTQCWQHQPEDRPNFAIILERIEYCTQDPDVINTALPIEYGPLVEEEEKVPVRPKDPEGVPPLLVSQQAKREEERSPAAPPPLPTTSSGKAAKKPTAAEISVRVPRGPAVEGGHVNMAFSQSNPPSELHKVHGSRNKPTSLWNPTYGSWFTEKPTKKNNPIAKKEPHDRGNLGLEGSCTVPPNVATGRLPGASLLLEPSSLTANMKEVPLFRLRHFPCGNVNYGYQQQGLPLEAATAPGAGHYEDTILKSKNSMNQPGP
Test: ALK Kinase Assay (ELISA/TRF, PLC-γ substrate)
Format: biochemical
Conditions: ALK kinase inhibition, 1 μM ATP; read-out: ALK Potency
pIC50: −log10 of the molar value.

Task item: GET /values?readout=pIC50&system=ALK (Homo sapiens)&item= "COc1ccccc1-c1ccc2cnc(Nc3ccc(C4CCN(CC(N)=O)CC4)cc3)nn12"
Reply: > 7.00

Task item: Same read-out for "O=S(=O)(c1cccc(-c2ccc3cnc(Nc4ccc(C5CCN(CCO)CC5)cc4)nn23)c1)N1CCOCC1" ?
Reply: 6.00 to 7.00

Task item: For "COc1cc(N2CCC(N3CCOCC3)CC2)ccc1Nc1ncc2ccc(-c3cccnc3)n2n1" then?
Reply: 6.00 to 7.00

Task item: Same for "CN1CCN(c2cccc(Nc3ncc4ccc(NCc5ccncc5)n4n3)c2)CC1"
Reply: < 5.00

Task item: Input "c1cc2c(c(-c3ccc4cnc(Nc5cnc6c(N7CCNCC7)cccc6c5)nn34)c1)OCC2"
Reply: < 5.00

Task item: Input COc1cc(N2CCC(N3CCOCC3)C2)ccc1Nc1ncc2ccc(-c3ccccc3N(C)S(C)(=O)=O)n2n1 (racemic)
Reply: > 7.00

Task item: Next up: "CN(C)c1cccc(CNc2ncc3c(-c4ccc(F)cc4)ccn3n2)c1"
Reply: < 5.00

Task item: Thanks! And "CN1CCN(c2ccc(Nc3ncc4ccc(-c5ccc(C=O)o5)n4n3)cc2)CC1" ?
Reply: 6.00 to 7.00

====

Target: JAK2 (Homo sapiens)
Construct: host or cells: baculovirus expression system
Sequence (O60674 whole entry): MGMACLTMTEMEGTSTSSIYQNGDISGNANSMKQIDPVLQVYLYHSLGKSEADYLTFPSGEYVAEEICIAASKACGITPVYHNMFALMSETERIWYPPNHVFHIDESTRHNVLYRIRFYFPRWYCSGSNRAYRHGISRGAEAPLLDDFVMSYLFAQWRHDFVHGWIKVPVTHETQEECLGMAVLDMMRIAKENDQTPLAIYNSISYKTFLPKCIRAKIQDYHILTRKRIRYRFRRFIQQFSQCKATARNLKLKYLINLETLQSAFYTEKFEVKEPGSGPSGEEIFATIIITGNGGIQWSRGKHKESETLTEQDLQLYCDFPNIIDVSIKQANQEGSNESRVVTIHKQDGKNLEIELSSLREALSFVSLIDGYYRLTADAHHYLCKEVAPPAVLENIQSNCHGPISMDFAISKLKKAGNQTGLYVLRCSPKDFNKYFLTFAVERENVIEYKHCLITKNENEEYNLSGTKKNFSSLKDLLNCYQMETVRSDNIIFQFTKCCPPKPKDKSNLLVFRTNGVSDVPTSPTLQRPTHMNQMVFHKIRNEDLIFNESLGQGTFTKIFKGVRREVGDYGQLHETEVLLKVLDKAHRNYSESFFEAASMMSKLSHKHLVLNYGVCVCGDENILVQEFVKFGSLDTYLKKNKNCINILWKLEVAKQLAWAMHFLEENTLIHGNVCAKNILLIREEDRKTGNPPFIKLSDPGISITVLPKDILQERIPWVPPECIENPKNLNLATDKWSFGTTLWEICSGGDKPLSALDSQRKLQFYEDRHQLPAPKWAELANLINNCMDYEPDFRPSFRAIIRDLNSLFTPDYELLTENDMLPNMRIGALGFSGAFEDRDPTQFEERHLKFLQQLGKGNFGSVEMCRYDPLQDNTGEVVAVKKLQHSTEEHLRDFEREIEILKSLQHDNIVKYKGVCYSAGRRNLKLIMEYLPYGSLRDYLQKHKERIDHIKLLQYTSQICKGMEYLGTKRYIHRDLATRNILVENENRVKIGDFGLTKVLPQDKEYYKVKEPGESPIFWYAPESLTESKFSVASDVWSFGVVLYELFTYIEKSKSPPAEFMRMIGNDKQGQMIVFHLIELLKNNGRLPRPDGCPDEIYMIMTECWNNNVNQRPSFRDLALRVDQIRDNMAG
Assay: Recombinant Human JAK2 Kinase Assay (TRF)
Format: biochemical
Details: JAK2 kinase inhibition, 0.2 μM ATP; read-out: JAK2 Potency
Measurement kind: IC50

See these solved cases before continuing.
Chem smiles	IC50
COc1ccccc1-c1ccc2cnc(Nc3ccc4c(c3)N3CCC4CC3)nn12	< 100 nM
CN1CCN(C(=O)C2CCN(c3ccc(Nc4ncc5ccc(-c6ccc(Cl)cc6O)n5n4)cc3)CC2)CC1	< 100 nM
COc1ccc(-c2ccc3cnc(Nc4ccc5c(c4)NC(=O)C5(C)C)nn23)cn1	< 100 nM
COc1cc(C2CCN(CC(N)=O)CC2)ccc1Nc1ncc2c(C)cc(-c3ccccc3N(C)S(C)(=O)=O)n2n1	100 to 1000 nM
COc1cc(N2CCC(N(C)C)CC2)ccc1Nc1ncc2ccc(-c3ccccc3OC)n2n1	< 100 nM
Cc1ccncc1-c1ccc2cnc(Nc3ccc(N4CCN(C)CC4)cc3)nn12	< 100 nM

Task item: # input molecule: "COc1cc(CN2CCN(C(=O)CN)CC2)ccc1Nc1ncc2ccc(-c3ccccc3OC)n2n1" ; wanted: its IC50
Reply: 100 to 1000 nM

Task item: Can you handle "COc1cc(N2CCC(N(C)C)CC2)ccc1Nc1ncc2ccc(-c3ccc(S(C)(=O)=O)cc3)n2n1" next?
Reply: < 100 nM

====

This section presents molecules with their documented IC50 values.
Molecular target: ALK (Homo sapiens)
Construct: host or cells: baculovirus expression system
Assay: ALK Kinase Assay (ELISA/TRF, PLC-γ substrate)
Format: biochemical
Details: ALK Kinase Inhibition; read-out: ALK Potency

Chem smiles	Target entity	IC50
CS(=O)(=O)c1ccc(-c2ccc3cnc(Nc4ccc5[nH]c(CN6CCOCC6)nc5c4)nn23)cc1	ALK (Homo sapiens)	> 10000 nM
CN1CCN(CC2CCN(c3ccc(Nc4ncc5ccc(-c6ccccc6N(C)S(C)(=O)=O)n5n4)cc3)CC2)CC1	ALK (Homo sapiens)	< 100 nM
CN1CCN(C(=O)c2ccc(Nc3ncc4ccc(-c5cccc(Cl)c5)n4n3)cc2)CC1	ALK (Homo sapiens)	100 to 1000 nM
N#Cc1ccc(-c2ccc3cnc(Nc4ccc(N5CCOCC5)cc4)nn23)cn1	ALK (Homo sapiens)	1000 to 10000 nM
Cc1cc(Nc2ncc3ccc(-c4cccc(Cl)c4)n3n2)ccc1N1CCOCC1	ALK (Homo sapiens)	1000 to 10000 nM
CN(C)S(=O)(=O)c1ccc(-c2ccc3cnc(Nc4ccc(N5CCCCC5)cc4)nn23)cc1	ALK (Homo sapiens)	> 10000 nM

Task item: Which IC50 value belongs to "c1ccc(-c2ccc3cnc(NCc4cccnc4)nn23)cc1" ?
Reply: 1000 to 10000 nM

Task item: Also need "COc1cccc(Nc2ncc3ccc(-c4cccc(S(=O)(=O)NC(C)(C)C)c4)n3n2)c1" , thanks.
Reply: 1000 to 10000 nM

All figures here come from patent US8471005B2.
